ASSAY SYSTEM: HLA-A*0206 (human)
ASSAY EXPLANATION: competition with 125I-labelled standard peptide 941.01 for purified HLA, gel filtration
DETAILS: scale: ratio
# Lookup of reported binding affinity ratio keyed by entry
Lab note: record the figure alone, no unit after it.

Observe how each entry below is paired with its result.
INSERT INTO measurements (binder, readout, result) VALUES
  ('VVHYRKWI (modifications not checked) [VVHYRKWI (Kallikrein, position 246, 8 amino acids)]', 'binding affinity ratio', 0.0001),
  ('VTWIGAAPLIL (modifications not checked) [… (PSA, position 8, 11 amino acids)]', 'binding affinity ratio', 0.0011),
  ('VVHYRKWIKDT (modifications not checked) [… (Kallikrein, position 246, 11 amino acids)]', 'binding affinity ratio', 0.0001),
  ('GAVPLIQSRIV (modifications not checked) [Kallikrein (hK2) peptide … (position 16)]', 'binding affinity ratio', 0.0003),
  ('VVHYRKWIKDT (modifications not checked) [… (PSA, position 242, 11 amino acids)]', 'binding affinity ratio', -0.0001);

Next item in the queue.
Noted for GLWTGGKDT (modifications not checked) [Kallikrein (hK2) peptide … (position 200)] : its binding affinity ratio reads -0.0001
